target: purified human FVIIa bound to recombinant human TF (apoTF/FVIIa) (Homo sapiens); construct: purchased American Diagnostica (TF); Enzyme Research Laboratories (FVIIa) 4500 (TF); HFVlla (FVIIa); test: Assay of apoTF/FVIIa catalytic (amidolytic) activity; type: biochemical; details: read-out: IC50, Amidolytic apo TF Assay
propertyName: IC50
Reply with a number, then the unit it belongs to.

Request: Which value of IC50 has been reported for Ac-SDHTGTKRS-NH2 [103-111] in the records?
Response: 2200 µM

----------
biological target: native TF/FVIIa complex on the surface of HT-1080 cells (Homo sapiens, UniProt P13726); construct: native TF/FVIIa complex on the surface of living cells expressing TF in their cell membrane; endogenous in cells; host or cells: HT-1080 human fibrosarcoma cells on Cytodex-3 microcarriers; experiment: Assay of HT1080 cell surface TF/FVIIa mediated activation of FX (amidolytic microcarrier assay); type: cell-based; details: HT-1080 cells on microcarriers
Sequence (P13726 33-295, one chain of several): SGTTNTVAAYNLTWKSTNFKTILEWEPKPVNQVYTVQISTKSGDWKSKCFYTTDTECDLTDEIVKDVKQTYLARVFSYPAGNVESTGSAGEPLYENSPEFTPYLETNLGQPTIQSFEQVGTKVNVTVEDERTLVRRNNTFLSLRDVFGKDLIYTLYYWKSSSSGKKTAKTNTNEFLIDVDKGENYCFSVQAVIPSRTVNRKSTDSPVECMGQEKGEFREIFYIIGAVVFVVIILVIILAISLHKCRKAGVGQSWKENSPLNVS
propertyName: IC50 (µM)
// units = µM; emit number, no label

Request: What value of IC50 on native TF/FVIIa complex on the surface of HT-1080 cells (Homo sapiens, UniProt P13726) does Ac-SDHTGTKRS-NH2 [103-111] have?
Response: 870
